pIC50 values by entry
target: hERG channel (Homo sapiens); experiment: hERG channel inhibition assay (patch-clamp, CHOhERG cells); conditions: patch-clamp, CHOhERG cells
Sequence (Q12809 whole entry): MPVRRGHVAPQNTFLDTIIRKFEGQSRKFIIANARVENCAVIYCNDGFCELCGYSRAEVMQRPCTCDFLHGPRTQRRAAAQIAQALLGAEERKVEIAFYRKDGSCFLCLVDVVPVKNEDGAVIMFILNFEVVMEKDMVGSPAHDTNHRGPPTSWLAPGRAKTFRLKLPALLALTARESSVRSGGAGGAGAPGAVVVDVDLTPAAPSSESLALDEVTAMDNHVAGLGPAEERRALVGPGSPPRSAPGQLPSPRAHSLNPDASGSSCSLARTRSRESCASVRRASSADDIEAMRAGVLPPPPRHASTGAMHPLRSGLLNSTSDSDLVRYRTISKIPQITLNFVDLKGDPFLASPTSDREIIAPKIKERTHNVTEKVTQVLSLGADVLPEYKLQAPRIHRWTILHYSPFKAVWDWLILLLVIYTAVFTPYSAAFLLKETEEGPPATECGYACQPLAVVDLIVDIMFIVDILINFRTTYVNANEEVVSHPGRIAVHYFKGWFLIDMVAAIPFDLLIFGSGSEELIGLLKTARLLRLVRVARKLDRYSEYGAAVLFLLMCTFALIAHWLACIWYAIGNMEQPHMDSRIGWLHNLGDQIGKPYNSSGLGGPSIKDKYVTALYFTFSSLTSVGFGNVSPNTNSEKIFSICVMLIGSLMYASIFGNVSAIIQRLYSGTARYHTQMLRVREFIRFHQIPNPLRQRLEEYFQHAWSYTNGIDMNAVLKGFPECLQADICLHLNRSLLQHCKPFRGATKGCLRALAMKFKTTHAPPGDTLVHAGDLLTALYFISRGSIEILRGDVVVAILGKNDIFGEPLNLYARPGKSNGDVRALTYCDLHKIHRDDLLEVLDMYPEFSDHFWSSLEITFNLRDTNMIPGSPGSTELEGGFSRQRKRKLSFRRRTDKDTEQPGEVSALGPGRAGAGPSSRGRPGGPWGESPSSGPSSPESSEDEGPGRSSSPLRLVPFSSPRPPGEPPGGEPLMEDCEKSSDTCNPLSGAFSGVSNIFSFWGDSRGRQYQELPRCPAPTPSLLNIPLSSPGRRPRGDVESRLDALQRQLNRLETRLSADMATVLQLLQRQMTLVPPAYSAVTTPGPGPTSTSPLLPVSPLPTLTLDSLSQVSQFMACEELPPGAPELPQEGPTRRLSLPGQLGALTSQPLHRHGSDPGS
pIC50: −log10 of the molar value.

> print(dat)
                                 smilesrepr  assayvalue
1  C[C@@H]1CN(c2ccc(C#N)c3ncccc23)C[C@H](CN2CCN(c3cccc(NC4CNC4)n3)CC2)O1      < 4.70
2  Cc1cc(N2CCNCC2)nc(N2CCN(C[C@H]3CN(c4ccc(C#N)c5nccnc45)C[C@@H](C)O3)CC2)n1      < 4.70

// pIC50 lookup, key: CO[C@@H]1CN(c2nccc(N3CCN(C[C@H]4CN(c5ccc(C#N)c6nccnc56)C[C@@H](C)O4)CC3)n2)C[C@H]1N < 4.70

Field entry: C[C@@H]1CN(c2ccc(C#N)c3ncccc23)C[C@H](CN2CCN(c3cncc(N4CCNCC4)c3)CC2)O1 < 4.70

Field entry: C[C@@H]1CN(c2ccc(C#N)c3nccnc23)C[C@H](CN2CCN(c3nccc(N4CC(N)C4)n3)CC2)O1 < 4.70

Field entry: C[C@@H]1CN(c2ccc(C#N)n3ncc(F)c23)C[C@H](CN2CCN(c3ccc(N4C[C@H]5NCCO[C@@H]5C4)nc3)CC2)O1 < 4.70

Field entry: C[C@@H]1CN(c2ccc(C#N)n3ncc(F)c23)C[C@H](CN2CCN(c3ccc(N[C@H]4CNC[C@H]4F)nc3)CC2)O1 < 4.70

Field entry: CO[C@H]1CN(c2cc(C)nc(N3CCN(C[C@H]4CN(c5ccc(C#N)c6nccnc56)C[C@@H](C)O4)CC3)n2)C[C@@H]1N < 4.70
